Test system: NMP53^−/− cells
Experiment: Colony formation assay on NMP53^−/− cells
Type: cell-based, murine
Conditions: Mus musculus, 120 h, colony formation assay, 5 days; read-out: EC (NMP53^−/−)

{"columns": ["compound", "uom", "minimal effective concentration"],
 "data": [
  ["CC(C)n1cc(-c2ccc(CNc3ccc(F)c(NC(=O)CCc4ccco4)c3)cc2)cn1", "µM", 4],
  ["O=C(CC1CCCCC1)Nc1cc(NCc2cc(-c3cc4cccnc4[nH]3)ccn2)ccc1F", "µM", 0.5],
  ["COc1cc(CNc2ccc(F)c(NC(=O)CCc3ccco3)c2)ccc1-c1cnn(C)c1 [Compound 128b]", "µM", 0.062],
  ["Cn1cc(-c2ccc(CNc3ccc(F)c(NC(=O)CCc4ccccc4)c3)nc2)cn1", "µM", 0.5],
  ["Cn1cc(-c2ccc(CNc3ccc(F)c(NC(=O)CCc4ccoc4)c3)cc2)cn1 [Compound 107n]", "µM", 0.062],
  ["Cn1cc(-c2ccc(COc3ccc(F)c(NC(=O)CCc4ccccc4)c3)cc2)cn1", "µM", 0.25],
  ["Cn1cc(-c2ccc(CNc3ccc(F)c(NC(=O)CCc4ccccc4)c3)cc2)cn1", "µM", 0.25],
  ["Cn1cc(-c2ccc(CNc3ccc(F)c(NC(=O)CCc4ccco4)c3)cn2)cn1 [Compound 128e]", "µM", 0.25]
]}
